Experiment: Hemolytic activity against human erythrocytes assessed as amount of hemoglobin released from lysed cells up to 150 uM relative to control
Type: ADME, cell-based, Erythrocyte
Settings: read-out: Activity
Where a SMILES comes first, the peptide text is derived from it.
For each record, write down the corresponding hemolysis.
I'd appreciate it if you included the unit after the number.

Which hemolysis is listed for CC(C)[C@H](NC(=O)[C@H](CCCNC(=N)N)NC(=O)[C@H](CS)NC(=O)[C@H](CO)NC(=O)[C@H](CCCNC(=N)N)NC(=O)[C@H](Cc1ccccc1)NC(=O)[C@@H](N)Cc1ccccc1)C(=O)N[C@@H](CS)C(=O)O (H-FFRSCRVC-OH) ?
2%

Which hemolysis is listed for CC(C)[C@H](N)C(=O)N[C@H](C(=O)N[C@@H](CCCCN)C(=O)N[C@@H](CS)C(=O)N[C@@H](CO)C(=O)N[C@@H](Cc1ccccc1)C(=O)N[C@@H](CCCNC(=N)N)C(=O)N1CCC[C@H]1C(=O)NCC(=O)N[C@@H](CO)C(=O)N1CCC[C@H]1C(=O)N[C@@H](C)C(=O)N1CCC[C@H]1C(=O)N[C@@H](CCCNC(=N)N)C(=O)N[C@@H](CS)C(=O)N[C@@H](CCCCN)C(=O)O)C(C)C (H-VVKCSFRPGSPAPRCK-OH) ?
5%

Which hemolysis is listed for CC(C)[C@H](NC(=O)[C@H](CO)NC(=O)[C@H](CCCNC(=N)N)NC(=O)[C@H](CS)NC(=O)[C@@H](NC(=O)[C@H](CCCNC(=N)N)NC(=O)[C@@H](N)Cc1ccccc1)[C@@H](C)O)C(=O)N[C@@H](CS)C(=O)O (H-FRTCRSVC-OH) ?
3%

Which hemolysis is listed for CC[C@H](C)[C@H](NC(=O)[C@H](CS)NC(=O)[C@@H](NC(=O)[C@@H](NC(=O)[C@H](CCCNC(=N)N)NC(=O)[C@H](C)NC(=O)[C@@H](NC(=O)[C@H](CC(N)=O)NC(=O)[C@@H](NC(=O)[C@H](CCCNC(=N)N)NC(=O)[C@H](Cc1ccccc1)NC(=O)[C@H](CCCNC(=N)N)NC(=O)[C@@H](NC(=O)[C@@H](N)CS)C(C)C)[C@@H](C)O)[C@@H](C)O)[C@@H](C)O)C(C)C)C(=O)N[C@@H](C)C(=O)N1CCC[C@H]1C(=O)O (H-CVRFRTNTARTVCIAP-OH) ?
5%

Which hemolysis is listed for CC(C)[C@H](NC(=O)[C@H](CCCNC(=N)N)NC(=O)[C@H](Cc1ccccc1)NC(=O)[C@H](CS)NC(=O)[C@H](CCCNC(=N)N)NC(=O)[C@H](CO)NC(=O)[C@@H](N)[C@@H](C)O)C(=O)N[C@@H](CS)C(=O)O (H-TSRCFRVC-OH) ?
1%

Which hemolysis is listed for CC[C@H](C)[C@H](NC(=O)[C@H](CS)NC(=O)[C@H](CCCNC(=N)N)NC(=O)[C@H](CO)NC(=O)[C@@H](N)[C@@H](C)O)C(=O)N[C@@H](Cc1ccccc1)C(=O)N[C@@H](Cc1ccc(O)cc1)C(=O)N[C@@H](CCCNC(=N)N)C(=O)N[C@@H](CCCNC(=N)N)C(=O)N[C@@H](CS)C(=O)N[C@H](C(=O)N[C@@H](CS)C(=O)N[C@@H](CO)C(=O)O)C(C)C (H-TSRCIFYRRCVCS-OH) ?
21%

Which hemolysis is listed for C[C@H](NC(=O)[C@H](CO)NC(=O)[C@H](CS)NC(=O)[C@H](CO)NC(=O)[C@@H](NC(=O)[C@H](CCCNC(=N)N)NC(=O)[C@@H](N)Cc1ccccc1)[C@@H](C)O)C(=O)N[C@@H](CS)C(=O)O (H-FRTSCSAC-OH) ?
2%

Which hemolysis is listed for CC[C@H](C)[C@H](NC(=O)[C@H](C)NC(=O)[C@@H]1CCCN1C(=O)[C@@H](NC(=O)[C@@H](N)Cc1ccccc1)C(C)C)C(=O)N[C@@H](CC(C)C)C(=O)N[C@@H](CS)C(=O)N[C@@H](CO)C(=O)N[C@H](C(=O)N[C@@H](CC(C)C)C(=O)N[C@@H](CCCCN)C(=O)N[C@H](C(=O)N[C@@H](CS)C(=O)O)[C@@H](C)O)[C@@H](C)CC (H-FVPAILCSILKTC-OH) ?
4%

Which hemolysis is listed for CC(C)[C@H](NC(=O)[C@H](CCCNC(=N)N)NC(=O)[C@H](Cc1ccccc1)NC(=O)[C@H](CS)NC(=O)[C@H](CCCNC(=N)N)NC(=O)[C@@H](N)[C@@H](C)O)C(=O)N[C@@H](CS)C(=O)N[C@@H](CO)C(=O)O (H-TRCFRVCS-OH) ?
1%

Which hemolysis is listed for CC(C)[C@H](NC(=O)[C@H](CO)NC(=O)[C@H](CCCNC(=N)N)NC(=O)[C@H](CS)NC(=O)[C@H](CO)NC(=O)[C@@H](NC(=O)[C@H](CCCNC(=N)N)NC(=O)[C@H](Cc1ccccc1)NC(=O)[C@@H](N)Cc1ccccc1)[C@@H](C)O)C(=O)N[C@@H](CS)C(=O)O (H-FFRTSCRSVC-OH) ?
7%

Which hemolysis is listed for "OC[C@H]1O[C@@H](Oc2ccc(O)cc2)[C@H](O)[C@@H](O)[C@@H]1O" ?
27%

* * *

Tested on: B16
Assay: Cytotoxicity against mouse B16 cells up to 150 uM by MTT assay relative to control
Type: cell-based
Where a SMILES comes first, the peptide text is derived from it.
Parameter Measured: Activity (%)
Lab book: enter the figure in %, no units written.

Which Activity is listed for CC[C@H](C)[C@H](NC(=O)[C@H](CS)NC(=O)[C@H](CCCNC(=N)N)NC(=O)[C@H](CO)NC(=O)[C@@H](N)[C@@H](C)O)C(=O)N[C@@H](Cc1ccccc1)C(=O)N[C@@H](Cc1ccc(O)cc1)C(=O)N[C@@H](CCCNC(=N)N)C(=O)N[C@@H](CCCNC(=N)N)C(=O)N[C@@H](CS)C(=O)N[C@H](C(=O)N[C@@H](CS)C(=O)N[C@@H](CO)C(=O)O)C(C)C (H-TSRCIFYRRCVCS-OH) ?
27

Which Activity is listed for CC(C)[C@H](NC(=O)[C@H](CCCNC(=N)N)NC(=O)[C@H](CS)NC(=O)[C@H](CO)NC(=O)[C@H](CCCNC(=N)N)NC(=O)[C@H](Cc1ccccc1)NC(=O)[C@@H](N)Cc1ccccc1)C(=O)N[C@@H](CS)C(=O)O (H-FFRSCRVC-OH) ?
5

Which Activity is listed for C[C@H](NC(=O)[C@H](CO)NC(=O)[C@H](CS)NC(=O)[C@H](CO)NC(=O)[C@@H](NC(=O)[C@H](CCCNC(=N)N)NC(=O)[C@@H](N)Cc1ccccc1)[C@@H](C)O)C(=O)N[C@@H](CS)C(=O)O (H-FRTSCSAC-OH) ?
8

Which Activity is listed for CC(C)[C@H](N)C(=O)N[C@H](C(=O)N[C@@H](CCCCN)C(=O)N[C@@H](CS)C(=O)N[C@@H](CO)C(=O)N[C@@H](Cc1ccccc1)C(=O)N[C@@H](CCCNC(=N)N)C(=O)N1CCC[C@H]1C(=O)NCC(=O)N[C@@H](CO)C(=O)N1CCC[C@H]1C(=O)N[C@@H](C)C(=O)N1CCC[C@H]1C(=O)N[C@@H](CCCNC(=N)N)C(=O)N[C@@H](CS)C(=O)N[C@@H](CCCCN)C(=O)O)C(C)C (H-VVKCSFRPGSPAPRCK-OH) ?
13

* * *

Target: Tyrosinase (Agaricus bisporus)
Test: Inhibition of mushroom tyrosinase using L-dopa as substrate assessed as reduction in dopachrome production after 20 mins by spectrophotometry
Parameter Measured: pIC50
Just so you know, pIC50 here is -log10 of the concentration in molar units; reply with that number alone.

Which pIC50 is listed for "H-TRAFRCVS-OH" ?
3.66

* * *

For each record, write down the corresponding pIC50.
Target: UniProt O42713
Sequence (O42713 whole entry): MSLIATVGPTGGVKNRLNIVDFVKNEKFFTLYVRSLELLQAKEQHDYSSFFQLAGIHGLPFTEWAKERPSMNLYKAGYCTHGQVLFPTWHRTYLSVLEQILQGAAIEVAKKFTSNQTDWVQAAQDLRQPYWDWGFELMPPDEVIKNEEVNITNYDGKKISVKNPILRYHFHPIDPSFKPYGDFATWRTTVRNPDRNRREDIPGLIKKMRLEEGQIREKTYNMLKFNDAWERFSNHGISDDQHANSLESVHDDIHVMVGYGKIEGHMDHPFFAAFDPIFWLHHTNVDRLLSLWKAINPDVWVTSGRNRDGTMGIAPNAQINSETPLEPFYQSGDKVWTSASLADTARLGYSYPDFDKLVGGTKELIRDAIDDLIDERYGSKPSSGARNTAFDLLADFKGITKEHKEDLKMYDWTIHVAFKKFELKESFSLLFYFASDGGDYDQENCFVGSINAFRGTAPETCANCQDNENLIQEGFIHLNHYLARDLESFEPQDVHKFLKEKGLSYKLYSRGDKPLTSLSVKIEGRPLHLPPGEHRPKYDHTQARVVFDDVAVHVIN
Test: Inhibition of mushroom tyrosinase using L-dopa as substrate assessed as reduction in dopachrome production after 20 mins by spectrophotometry
Where a SMILES comes first, the peptide text is derived from it.
Just so you know, pIC50 here is -log10 of the concentration in molar units; reply with that number alone.

Which pIC50 is listed for CC[C@H](C)[C@H](NC(=O)[C@H](CS)NC(=O)[C@H](CCCNC(=N)N)NC(=O)[C@H](CO)NC(=O)[C@@H](N)[C@@H](C)O)C(=O)N[C@@H](Cc1ccccc1)C(=O)N[C@@H](Cc1ccc(O)cc1)C(=O)N[C@@H](CCCNC(=N)N)C(=O)N[C@@H](CCCNC(=N)N)C(=O)N[C@@H](CCCCN)C(=O)N[C@@H](CCCCN)C(=O)N[C@@H](CS)C(=O)N[C@@H](CO)C(=O)O (H-TSRCIFYRRKKCS-OH) ?
3.82

Which pIC50 is listed for C[C@@H](O)[C@H](NC(=O)[C@H](CO)NC(=O)[C@H](Cc1ccccc1)NC(=O)[C@@H](N)Cc1ccccc1)C(=O)N[C@@H](CO)C(=O)N[C@@H](CS)C(=O)N[C@@H](CCCNC(=N)N)C(=O)N[C@@H](CO)C(=O)NCC(=O)N[C@@H](CS)C(=O)O (H-FFSTSCRSGC-OH) ?
3.73

Which pIC50 is listed for CC[C@H](C)[C@H](NC(=O)[C@H](CS)NC(=O)[C@H](C)NC(=O)[C@@H](NC(=O)[C@H](CCCNC(=N)N)NC(=O)[C@H](C)NC(=O)[C@@H](NC(=O)[C@H](CC(N)=O)NC(=O)[C@@H](NC(=O)[C@H](CCSC)NC(=O)[C@H](Cc1c[nH]c2ccccc12)NC(=O)[C@H](Cc1cnc[nH]1)NC(=O)[C@@H](NC(=O)[C@@H](N)CS)C(C)C)[C@@H](C)O)[C@@H](C)O)[C@@H](C)O)C(=O)N[C@@H](C)C(=O)N1CCC[C@H]1C(=O)O (H-CVHWMTNTARTACIAP-OH) ?
3.75

Which pIC50 is listed for CC(C)[C@H](NC(=O)[C@H](CO)NC(=O)[C@H](CCCNC(=N)N)NC(=O)[C@H](CS)NC(=O)[C@H](CO)NC(=O)[C@@H](NC(=O)[C@H](CCCNC(=N)N)NC(=O)[C@H](Cc1ccccc1)NC(=O)[C@@H](N)Cc1ccccc1)[C@@H](C)O)C(=O)N[C@@H](CS)C(=O)O (H-FFRTSCRSVC-OH) ?
3.90
